- target_of_assay: UniProt P16066
- protocol_text: NPRA Functional Cell Assay (cGMP HTRF)
- recorded_conditions: Human NPRA HEK JumpIn stable cells; cGMP by HTRF after 1 hour at 37° C.; 10-point dose response
pEC50: −log10 of the molar value.
measured_parameter: pEC50

>>> observed_result("CC(C)(C)[C@H]1CCc2nc3ccc(C(=O)N[C@H](CCN4CCC(O)CC4)c4ccc(N5CCOC5=O)cc4)cc3cc2C1")
6.12
>>> observed_result("CC(C)[C@]1(F)CCc2nc3c(F)c(F)c(C(=O)N[C@H](CCN4CCC(O)CC4)c4ccc(N5CCOC5=O)cc4)cc3cc2C1")
6.60
>>> observed_result("COCC1CCN(CC[C@@H](NC(=O)c2cc(F)c3nc4c(cc3c2)C[C@](F)(C(C)C)CC4)c2ccc(-c3ccnnc3)nc2)CC1 (racemic)")
6.69
>>> observed_result("CC1C(=O)NC(=O)N1c1ccc([C@@H](CCN2CCC(O)CC2)NC(=O)c2cc(F)c3nc4c(cc3c2)C[C@](F)(C(C)C)CC4)cn1 (stereo partly shown)")
6.56

P: CC(C)[C@]1(F)CCc2nc3c(F)cc(C(=O)N[C@H](CCN4CCC(C)(O)CC4)c4ccc(-c5ccnnc5)nc4)cc3cc2C1
Q: CC1([C@H]2CCc3nc4ccc(C(=O)N[C@H](CCN5CCC(O)CC5)c5ccc(N6CCOC6=O)cc5)cc4cc3C2)CC1
R: CC(C)[C@]1(F)CCc2nc3c(F)cc(C(=O)N[C@H](CCN4CCC(O)CC4)c4ccc(N5CCOC5=O)cc4)cc3cc2C1
Rank ascending by pEC50. Labels, ranked as asked.
Q, P, R
(Q: 6.15, P: 6.69, R: 6.94)

----------
- target_of_assay: hNPRA (Homo sapiens)
- protocol_text: NPRA Functional Cell Assay (cGMP HTRF)
- recorded_conditions: Human NPRA HEK JumpIn stable cells; cGMP by HTRF after 1 hour at 37° C.; 10-point dose response
pEC50: −log10 of the molar value.
measured_parameter: pEC50

>>> observed_result("CC(C)[C@]1(F)CCc2nc3c(F)cc(C(=O)N[C@H](CCN4CCCCC4CN(C)C)c4ccc(-c5ccnnc5)nc4)cc3cc2C1 (mixture of isomers) [Example 59]")
6.36
>>> observed_result("CN1CC(NC(=O)c2cccc([C@@H](CCN3CCC(CC(=O)O)CC3)NC(=O)c3ccc4nc5c(cc4c3)C[C@@H](C3(C)CC3)CC5)c2)C1 (racemic) [Example 66]")
6.40
>>> observed_result("CC(C)[C@]1(F)CCc2nc3c(F)cc(C(=O)N[C@H](CCN4CCC[C@@H](O)C4)c4ccc(-c5ccnnc5)nc4)cc3cc2C1 (racemic) [Example 40]")
6.47

----------
- target_of_assay: hNPRA (Homo sapiens, UniProt P16066)
- Sequence (P16066 33-1061): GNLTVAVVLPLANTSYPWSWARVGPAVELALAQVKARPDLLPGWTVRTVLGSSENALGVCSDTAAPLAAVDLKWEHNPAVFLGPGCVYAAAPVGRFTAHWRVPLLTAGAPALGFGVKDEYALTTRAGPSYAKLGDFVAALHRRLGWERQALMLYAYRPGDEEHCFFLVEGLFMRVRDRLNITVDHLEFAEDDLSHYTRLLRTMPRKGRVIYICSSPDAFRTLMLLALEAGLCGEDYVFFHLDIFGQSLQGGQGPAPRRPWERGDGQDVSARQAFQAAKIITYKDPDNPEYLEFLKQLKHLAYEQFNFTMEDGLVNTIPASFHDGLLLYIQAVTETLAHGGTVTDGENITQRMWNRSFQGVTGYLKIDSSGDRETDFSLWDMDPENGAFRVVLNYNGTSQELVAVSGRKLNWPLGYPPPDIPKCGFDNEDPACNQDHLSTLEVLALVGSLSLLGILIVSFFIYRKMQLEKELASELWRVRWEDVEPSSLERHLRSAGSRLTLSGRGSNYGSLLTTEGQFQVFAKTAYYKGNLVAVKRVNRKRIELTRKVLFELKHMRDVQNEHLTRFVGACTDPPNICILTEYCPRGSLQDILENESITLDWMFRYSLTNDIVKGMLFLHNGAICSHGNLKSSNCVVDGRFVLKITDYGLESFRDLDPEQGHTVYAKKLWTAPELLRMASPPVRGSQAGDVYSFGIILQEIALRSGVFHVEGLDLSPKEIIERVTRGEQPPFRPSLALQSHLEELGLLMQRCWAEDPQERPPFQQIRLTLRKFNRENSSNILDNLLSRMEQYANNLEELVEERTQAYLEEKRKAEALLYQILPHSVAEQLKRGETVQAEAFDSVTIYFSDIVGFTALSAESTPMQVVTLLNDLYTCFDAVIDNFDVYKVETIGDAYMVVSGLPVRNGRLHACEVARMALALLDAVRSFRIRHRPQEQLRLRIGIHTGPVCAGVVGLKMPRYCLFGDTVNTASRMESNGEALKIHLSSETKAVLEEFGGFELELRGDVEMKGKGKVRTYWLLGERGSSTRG
- protocol_text: NPRA Functional Cell Assay (cGMP HTRF)
- recorded_conditions: Human NPRA HEK JumpIn stable cells; cGMP by HTRF after 1 hour at 37° C.; 10-point dose response
pEC50: −log10 of the molar value.
measured_parameter: pEC50

Example results:
>>> observed_result("CC(C)[C@]1(F)CCc2nc3c(F)cc(C(=O)N[C@H](CCN4CCC(O)(C(=O)O)CC4)c4ccc(-c5ccnnc5)nc4)cc3cc2C1")
6.07
>>> observed_result("CC(C)[C@]1(F)CCc2nc3c(F)cc(C(=O)N[C@H](CCN4CCC(O)(CO)CC4)c4ccc(-c5ccnnc5)nc4)cc3cc2C1")
6.69
>>> observed_result("CC(C)[C@]1(F)CCc2nc3c(F)cc(C(=O)N[C@H](CCN4CCC5(CCCO5)CC4)c4ccc(-c5ccnnc5)nc4)cc3cc2C1 [Example 16]")
6.46
>>> observed_result("CC(C)[C@]1(F)CCc2nc3c(F)cc(C(=O)N[C@H](CCN4CCC(O)CC4)c4ccc(N5CC6CCC5CO6)nc4)cc3cc2C1 (some centres unmarked)")
5.55
>>> observed_result("CC(O)C1CCN(CC[C@@H](NC(=O)c2cc(F)c3nc4c(cc3c2)C[C@](F)(C(C)C)CC4)c2ccc(-c3ccnnc3)nc2)CC1 (mixture of isomers)")
6.63

P: CC(C)[C@]1(F)CCc2nc3c(F)cc(C(=O)N[C@H](CCN4CCC5(CC[C@@H](O)C5)CC4)c4ccc(-c5ccnnc5)nc4)cc3cc2C1 (racemic)
Q: O=C(N[C@H](CCN1CCC(O)CC1)c1ccc(N2CCOC2=O)cc1)c1ccc2nc3c(cc2c1)C[C@@H](C1(C(F)(F)F)CC1)CC3
Lab log: flag the item ( P or Q ) with the smaller pEC50 figure. Response format: the label of the selected entry.
Q

A: CC(C)[C@]1(F)CCc2nc3c(F)cc(C(=O)N[C@H](CCN4CCCCC4CCO)c4ccc(-c5ccnnc5)nc4)cc3cc2C1 (mixture of isomers)
B: CCS(=O)(=O)c1ccc([C@@H](CCN2CCC(O)CC2)NC(=O)c2cc(F)c3nc4c(cc3c2)CC(F)(C(C)C)CC4)cn1 (stereo in doubt)
When their pEC50 values are compared, which is larger, A or B ? Response format: the label of the selected entry.
A
